Would you kindly list TGI for each of these molecules?
Tested on: HCT-15 colon
Assay: NCI tumour cell line growth inhibition, 48 h
Give the value, in units of µM, as a plain number.

Qu. Answer with the recorded TGI of `Cc1nnc(C[C@@H]2C=C(c3ccc(Cl)cc3)c3ccccc3-n3c(C)nnc32)o1` only.
Ans. 40.2

Qu. Tell me measured TGI for `CC1(C)OB(c2ccc(N(CCOS(C)(=O)=O)CCOS(C)(=O)=O)cc2)OC1(C)C` please.
Ans. 41

Qu. Answer with the recorded TGI for the molecule listed here: `CCOC(=O)NN(C(=O)OCC)c1ccc(N=Nc2ccc(OC)cc2)n1C`
Ans. 39.1

Qu. Consider the molecule `COc1ccc(C(c2ccccc2C(=O)O)c2ccc(OC)c3ccccc23)c2ccccc12` and give its recorded TGI.
Ans. 28.8

Qu. Specify TGI for C[C@@H]1CC[C@H]2[C@@H](C)C(O)O[C@@H]3O[C@]4(C)CC[C@@H]1[C@]32OO4 (some centres not stated) and stop.
Ans. 13.8

Qu. Look up TGI of `Nc1n[n+]([O-])c2cc([N+](=O)[O-])ccc2[n+]1[O-]` and report it.
Ans. 13.6

Qu. Return TGI for the following molecule: OC1(c2ccccc2)CC2CCC(C1)N2CCCC(O)(c1ccccc1)c1ccccc1 (configuration not stated)
Ans. 27.3

Qu. Tell me measured TGI for `O/N=C1/CCCC/C1=C/C=C/c1ccccc1` please.
Ans. 36.2

Qu. Write down TGI measured for item `CC[C@H](C)[C@H](NC(=O)N(CCC#N)CCN(CCN(C(=O)N[C@@H](Cc1ccccc1)C(=O)OC)c1ccccc1)C(=O)N[C@H](C(=O)OC)C(C)C)C(=O)OC`
Ans. 51.6
